Molecular target: CCR1 (Homo sapiens)
Sequence (P32246 1-355): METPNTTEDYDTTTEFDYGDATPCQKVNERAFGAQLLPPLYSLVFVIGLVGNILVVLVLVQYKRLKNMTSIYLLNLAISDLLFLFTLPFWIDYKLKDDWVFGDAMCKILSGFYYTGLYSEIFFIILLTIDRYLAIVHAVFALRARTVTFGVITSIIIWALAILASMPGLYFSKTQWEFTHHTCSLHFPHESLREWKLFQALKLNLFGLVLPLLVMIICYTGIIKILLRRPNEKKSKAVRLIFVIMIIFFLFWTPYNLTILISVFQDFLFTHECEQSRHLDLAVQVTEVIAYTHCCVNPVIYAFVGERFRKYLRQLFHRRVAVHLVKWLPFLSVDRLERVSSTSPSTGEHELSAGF
Assay: Compound 1 selectivity panel, buffer IC50
Conditions: Receptor CCR1
MEASURED_PROPERTY: IC50

Which IC50 reading was recorded for the compound C[C@@H](Nc1cc(C2CCN([C@H]3CCCN(CCC(=O)O)C3)CC2)ccc1Cl)c1ccc(Cl)cc1Cl [Compound 1] ? > 10 µM
